test-details: qHTS of pediatric cancer cell lines to identify multiple opportunities for drug repurposing: Primary screen for TC32 cells (AID 1347089); further: nearly all actives have a fitted effect of over 60% in size
recorded-conditions: TC32 Ewing sarcoma viability, CellTiter-Glo luminescence, 48 h; series mostly up to 45.8 µM
Results filed as inconclusive are left out. The source made the active and inactive calls. The call rests on the fitted dose curve; in most records, active means well fitted cell-killing curve with a large enough effect; inconclusive means small, poorly fitted or top-dose-only effect; inactive means flat fitted curve, though single readings scatter.
Hello, when you answer, please use one of the following outcomes: active, inactive

Would you mind telling me which call this test gave CNC1[C@H](O)C(O[C@@H]2C(O)C(O[C@H]3O[C@H]([C@@H](C)NC)CC[C@H]3N)[C@@H](N)C[C@H]2N)OC[C@]1(C)O (some centres undefined) ? inactive

Would you mind telling me which call this test gave `CC(C)(C)c1nc(-c2cccc(NS(=O)(=O)c3c(F)cccc3F)c2F)c(-c2ccnc(N)n2)s1` ? inactive

Would you mind telling me which call this test gave `Cc1cc(OCCCS(C)(=O)=O)cc(C)c1-c1cccc(COc2ccc3c(c2)OC[C@H]3CC(=O)O)c1` ? inactive

Would you mind telling me which call this test gave `COc1ccc2c(c1)CC[C@H]1[C@@H]2CC[C@]2(C)[C@@H](NCCCCCCN3C(=O)C=CC3=O)CC[C@H]12` ? inactive

Would you mind telling me which call this test gave `COc1c(C)c2c(c(O)c1CC=C(C)CCC(=O)O)C(=O)OC2` ? active

###

Tested on: MKL-1
test-details: qHTS assay to identify novel small-molecules to repurpose for Merkel cell carcinoma treatment (AID 1296009); further: nearly all actives have a fitted effect of over 60% in size
recorded-conditions: MCC and control cell lines, CellTiter-Glo viability, 72 h; series mostly up to 46 µM
Inconclusive results are not listed. Activity calls are given as the source filed them. Calls come from the whole dose curve; as a rule, active = well fitted inhibition curve with a large enough effect; inconclusive = small, poorly fitted or top-dose-only effect; inactive = flat fitted curve, though single readings scatter.
Hello, when you answer, please use one of the following outcomes: active, inactive

Check out these entries, answers already filled in.
# molecule, category-label
rows = [
    ("CCCCc1ccc(NS(=O)(=O)c2ccc(C)c(C(=O)N3CCN(c4cccc(C)c4C)CC3)c2)cc1", "inactive"),
    ("CC1CNc2c(cccc2S(=O)(=O)N[C@@H](CCCN=C(N)N)C(=O)N2CC[C@@H](C)C[C@@H]2C(=O)O)C1 (stereo not given in full)", "active"),
    ("C=C[C@@H]1CN2CCC1C[C@@H]2C(O)c1ccnc2ccc(OC)cc12 (stereo not given in full)", "inactive"),
]

Next molecule, please.
Would you mind telling me which call this test gave `CC[C@]1(O)C[C@H]2CN(CCC3=c4ccccc4=N[C]3[C@@](C(=O)OC)(c3cc4c(cc3OC)N(C)[C@H]3[C@@](O)(C(N)=O)[C@H](O)[C@]5(CC)C=CCN6CC[C@]43[C@@H]65)C2)C1` ? active

###

test-details: Quantitative High-Throughput drug screen in 47 multiple myeloma cell lines against the NCATS MIPE library collection: KMS27_JCRB cell viability assay (AID 1918970); further: nearly all actives have a fitted effect of over 30% in size
recorded-conditions: KMS27 myeloma cells, CellTiter-Glo ATP viability, 48 h
Results filed as inconclusive are left out. Active and inactive are the calls of the source. The call rests on the fitted dose curve; in most records, active means well fitted cell-killing curve with a large enough effect; inconclusive means small, poorly fitted or top-dose-only effect, or effect the other way; inactive means no such curve, though single readings can be large or run the other way.
Hello, when you answer, please use one of the following outcomes: active, inactive

Check out these entries, answers already filled in.
# compound, category-label
measured = [
    ("CCCCC(C=O)NC(=O)C(CC(C)C)NC(=O)OCc1ccccc1 (configuration not stated)", "inactive"),
    ("N[C@@H](CC(=O)N1CCn2c(nnc2C(F)(F)F)C1)Cc1cc(F)c(F)cc1F", "inactive"),
    ("CN(CC=CC#CC(C)(C)C)Cc1cccc2ccccc12", "inactive"),
    ("O=c1[nH]c(=O)n([C@H]2C[C@@H](O)[C@@H](CO)O2)cc1I", "inactive"),
    ("CN(C)CC[C@H](CSc1ccccc1)Nc1ccc(S(=O)(=O)NC(=O)c2ccc(N3CCN(Cc4ccccc4-c4ccc(Cl)cc4)CC3)cc2)cc1[N+](=O)[O-]", "active"),
]

Next compound, please.
Would you mind telling me which call this test gave `CCCCOCCOc1nc(-c2ccc(C(=O)O)c(F)c2)sc1C` ? inactive
